assay: antimalarial activity against Dd2 strain (AID 2302); details: P. falciparum Dd2 in RBCs, LDH growth readout, 72 h; at 2 µM; stronger effect = higher value
Criterion: growth inhibition meeting or surpassing 60%. Met: YES. Not met: NO.

Record excerpt, results attached:
Cc1cccc(Nc2nccc(Nc3cccc(C(=O)NCCN4CCOCC4)c3)n2)c1	NO
O=C(NC1CCN(CCCc2ccccc2)CC1)c1ccc(-c2cccc(C(F)(F)F)c2)s1	NO
O=C(NC1CCC(CCN2Cc3cccc(C(F)(F)F)c3C2)CC1)c1cccc(-c2cccnc2)c1 (stereo not given)	YES
COc1ccc(-c2ccc(NC(=O)c3ccc(Cl)cc3)cc2)cc1CN1CCN(C)CC1	NO
CCOc1ccccc1CNc1nccc(NCCc2cn(C)c3ccccc23)n1	YES
COc1cc2nc(N3CCN(C(=O)c4ccc(N(C(=O)OC(C)(C)C)C(=O)OC(C)(C)C)cc4)CC3)nc(N)c2cc1OC	NO

[ask] Reported growth inhibition reaches at least 60% for CCOc1ccc(C(=O)N2CCOC(CCN3CCC(c4ccccc4)CC3)(c3ccc(Cl)c(Cl)c3)C2)cc1 (stereo not given) ?
[reply] YES

[ask] What would you report for COc1ccc(N2CCN(c3nc(Nc4ccc(NC(C)=O)cc4)nc(N4CCCC4)n3)CC2)cc1 ?
[reply] NO

[ask] What would you report for C=CCNC(CCCCC)c1ccc(OCCOc2ccc(C(CCCCC)NCC=C)cc2)cc1 (stereo not given) ?
[reply] NO

[ask] What would you report for Cc1cc(N[C@@H](Cc2ccccc2)C(=O)NC2CCCC2)nc(NCCCOC(C)C)n1 ?
[reply] NO

[ask] What would you report for CN(C)CCNCc1nc(-c2ccc3c(Nc4ccc(Cl)cc4F)ccnc3c2)cs1 ?
[reply] YES

[ask] What would you report for CC(=O)Nc1ccc(C(=O)Nc2cccc(-c3ccc(-c4nc5c(C)cccc5[nH]4)cc3)c2)cn1 ?
[reply] YES

[ask] What would you report for CCOC(=O)CNC(=O)N1CCN(C(=O)NCC(=O)OCC)CC1 ?
[reply] NO

[ask] What would you report for Cc1ccc2c(=O)c3cc(C)ccc3[nH]c2c1 ?
[reply] YES

[ask] What would you report for Cc1cccc(-c2ccc(NC(=O)Nc3ccc4nccc(N5CCN(C)CC5)c4c3)cc2C)n1 ?
[reply] YES

[ask] What would you report for CS(=O)(=O)CCNCc1nc(-c2ccc3c(Nc4ccc(Cl)cc4F)ccnc3c2)cs1 ?
[reply] NO

[ask] What would you report for O=C(Nc1ccc(OC2CCN(Cc3ccc(F)cc3)CC2)c(Cl)c1)c1ccsc1 ?
[reply] YES

[ask] What would you report for COc1ccc(-c2nc(NC(=O)Cc3coc4cc(OC)ccc34)sc2C)cc1 ?
[reply] YES

[ask] What would you report for CC(C)CNCc1ccc(-c2cccc(-c3nc4ccccc4[nH]3)c2)cc1 ?
[reply] YES

----------
test: HepG2 cytotoxicity, primary screen, cytotoxicity control for P. falciparum antimalarial project, cell-based, ATP luminescence (AID 2303); conditions: HepG2 viability, 24-48 h, at 10 µM
The source made the active and inactive calls.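 How the source made its calls: active means inhibition above 50%; inactive means the rest.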
// classify into true = active, false = inactive

Record excerpt, results attached:
COc1ccc(-c2ccc(NC(=O)c3cccc(Cl)c3)cc2)cc1CN(C)CCN(C)C	false
O=C(N[C@H]1CCN(CCc2ccc(O[C@H]3CCNC3)c(Cl)c2)C1)c1ccc(Cl)c(Cl)c1	false
Cc1ccc(/C=C/C(=O)NC2CCC(N3CCC(c4ccccc4C)CC3)CC2)cc1C (stereo not given)	false
CCc1[nH]nc(C(=O)Nc2cccc(N3CCCC3)c2)c1C	false

Consider the additional compound presented here.
[ask] Assay result, entry Cn1nccc1C(=O)NCCNCc1ccc(-c2cccc(-c3nc4ccc(C(F)(F)F)cc4[nH]3)c2)cc1 — outcome?
[reply] true
